Source: patent US20240246964A1

Listed below: pEC50 values for each entry.
Molecular target: UniProt Q9NZQ7
Sequence (Q9NZQ7 19-290): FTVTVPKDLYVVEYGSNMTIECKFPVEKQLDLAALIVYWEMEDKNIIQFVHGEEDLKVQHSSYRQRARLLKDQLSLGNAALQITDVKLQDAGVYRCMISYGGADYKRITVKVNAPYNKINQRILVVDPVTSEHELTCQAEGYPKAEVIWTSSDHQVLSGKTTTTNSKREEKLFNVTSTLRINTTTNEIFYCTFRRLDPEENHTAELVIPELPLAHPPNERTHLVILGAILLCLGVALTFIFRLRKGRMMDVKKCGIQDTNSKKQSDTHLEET
Test: T cell activation luciferase reporter cell culture system (T Cell Activation Assay)
Assay type: cell-based
Settings: luciferase reporter assay; PD-L1 aAPC/CHO-K1 cells with PD-1 effector Jurkat T cells
pEC50: −log10 of the molar value.
Metric: pEC50

Structure	Target entity	Relation	Measured result
COc1cc(-c2nccc(-c3cccc(NC(=O)c4ccc(CNC[C@@H]5CCC(=O)N5)cn4)c3Cl)c2Cl)ccc1CNC[C@@H]1CCC(=O)N1	UniProt Q9NZQ7	=	7.57
COc1cc(-c2nccc(-c3cccc(-c4ccc(CN5CC6(C5)CN(C(C)=O)C6)c(OC)n4)c3Cl)c2Cl)ccc1CN1CC2(CNC(=O)C2)C1	UniProt Q9NZQ7	=	7.89
COc1cc(-c2nccc(-c3cccc(NC(=O)c4ccc(C(=O)O)cn4)c3Cl)c2Cl)ccc1CNC[C@@H]1CCC(=O)N1	UniProt Q9NZQ7	=	5.99
COc1cc(-c2nccc(-c3cccc(-c4ccc(CN5CC6(CCOCC6)C5)c(OC)n4)c3Cl)c2Cl)ccc1CN1CC2(CCOCC2)C1	UniProt Q9NZQ7	=	6.72
COc1nc(-c2ccnc(-c3cccc(NC(=O)c4cn(C)c(=O)n(C)c4=O)c3Cl)c2Cl)ccc1CNC[C@@H]1CCC(=O)N1	UniProt Q9NZQ7	=	7.09
COc1cc(-c2nccc(-c3cccc(-c4ccc(CNC5CCN(C(C)=O)CC5)c(OC)n4)c3Cl)c2Cl)ccc1CNC1CCN(C(C)=O)CC1	UniProt Q9NZQ7	=	7.89
COc1cc(-c2ncnc(-c3cccc(-c4ccc(CN5CC6(C5)CN(C(C)=O)C6)c(OC)n4)c3Cl)c2Cl)ccc1CN1CC2(C1)CN(C(C)=O)C2	UniProt Q9NZQ7	≤	5.00
COc1cc(-c2nccc(-c3cccc(-c4cc(Cl)c(CNC[C@@H]5CCC(=O)N5)c(OC)n4)c3Cl)c2Cl)ccc1CNCC(=O)OC(C)C	UniProt Q9NZQ7	=	6.89
COc1cc(-c2nccc(-c3cccc(-c4ccc(CN5CC6(COC6)C5)c(OC)n4)c3Cl)c2C)ccc1CN1CC2(COC2)C1	UniProt Q9NZQ7	=	6.65
